targetUnderTest: Recombinant human c-Cbl (aa 47-435) (Homo sapiens, UniProt P22681)
Sequence (P22681 47-435): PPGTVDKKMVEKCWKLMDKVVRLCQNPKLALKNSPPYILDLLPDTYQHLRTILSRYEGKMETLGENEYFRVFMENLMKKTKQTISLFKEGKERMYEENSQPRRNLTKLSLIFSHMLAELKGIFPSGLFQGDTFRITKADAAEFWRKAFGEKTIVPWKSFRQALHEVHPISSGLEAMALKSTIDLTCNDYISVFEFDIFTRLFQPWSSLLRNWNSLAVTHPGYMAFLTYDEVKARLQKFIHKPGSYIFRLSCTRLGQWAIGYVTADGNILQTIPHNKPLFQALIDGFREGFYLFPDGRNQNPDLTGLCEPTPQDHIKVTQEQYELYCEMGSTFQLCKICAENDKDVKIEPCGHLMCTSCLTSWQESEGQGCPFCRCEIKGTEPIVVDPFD
experimentalProtocol: c-Cbl Biochemical Assay (TR-FRET)
measurementConditions: hc-Cbl Biochemical Assay (TR-FRET); read-out: TR-FRET hcCbl IC50
Below: a set of entries, each annotated with reported IC50.

compound: COC(=O)c1cc(C(F)(F)F)c2oc(-c3cccc(-c4ccc(F)cc4-c4nncn4C)c3)nc2c1 [Example X-1]
IC50: 1000 to 10000 nM

compound: Cn1cnnc1-c1cc(F)ccc1-c1cccc(-c2nc3cc(CN4C(=O)O[C@H]5CCC[C@H]54)cc(C(F)(F)F)c3o2)c1 [CY-1]
IC50: 200 to 1000 nM

compound: COCCNCc1cc(F)c2oc(-c3cc(-c4ccc(F)cc4-c4nncn4C)cc(C4CC4)n3)nc2c1 [AHB-1]
IC50: < 200 nM

compound: Cn1cnnc1-c1cc(F)ccc1-c1cc(-c2nc3cc(CNCC4(O)CCC4)ccc3o2)nc(C2CC2)c1 [AFC-1]
IC50: < 200 nM

compound: [2H]C([2H])(NCC1(O)CCC1)c1cc(C(F)(F)F)c2oc(-c3cccc(-c4ccc(F)cc4-c4nncn4C)c3)nc2c1 [HB-1]
IC50: < 200 nM

compound: COCCNCc1cc(C(F)(F)F)c2oc(-c3cccc([C@]4(c5nncn5C)C[C@@H](C)C4)c3)nc2c1 [ADN-1]
IC50: 200 to 1000 nM

compound: Cn1cnnc1-c1cc(F)ccc1-c1cccc(-c2nc3cc(CNCC4(O)CCCC4)cc(C(F)(F)F)c3[nH]2)c1 [CJ-1]
IC50: < 200 nM

Where do the numbers come from? From patent US20250163038A1.
